Source: ChEMBL document CHEMBL5154686

Assay: Clearance in CD-1 mouse plasma at 0.4 mg/kg, iv by LC-MS/MS analysis
Type: ADME, organism-based
Hi there, I'd appreciate the recorded clearance for every entry that follows.
Answers are plain numbers, in mL/min.

Fill in clearance for each of the 3 compounds listed.
1. N#Cc1ccc2c(c1)CCC[C@@H]2Nc1ccc2[nH]nc(-c3ccncc3)c2c1
2. N#Cc1ccc2c(c1)OCC[C@H]2Nc1ccc2[nH]nc(-c3ccncc3)c2c1
3. Cc1cc(-c2n[nH]c3ccc(N[C@@H]4CCCc5cc(C#N)ccc54)cc23)ccn1

Result:
68.4
94.9
65.1

Request: clearance lookup needed for N#Cc1ccc2c(c1)CCC[C@H]2Nc1ccc2[nH]nc(-c3ccnc(N4CCOCC4)c3)c2c1 , thanks.
Result: 36.6

---

Hi there, I'd appreciate the recorded half-life for every entry that follows.
Test: in vitro
Settings: human, liver microsomes
Number first, unit second.

Check out these entries, answers already filled in.
{"columns": ["Structure", "half-life"],
 "data": [
  ["N#Cc1ccc2c(c1)CCC[C@H]2Nc1ccc2[nH]nc(-c3ccnc(N4CCOCC4)c3)c2c1", "30 min"],
  ["N#Cc1ccc2c(c1)CCC[C@@H]2Nc1ccc2[nH]nc(-c3ccncc3)c2c1", "33 min"],
  ["Cc1cc(-c2n[nH]c3ccc(N[C@@H]4CCCc5cc(C#N)ccc54)cc23)ccn1", "22 min"]
]}

Fill in half-life for each of the 4 compounds listed.
1. Cc1cc(-c2n[nH]c3ccc(N[C@H]4CCCc5cc(C#N)ccc54)cc23)cc(C)n1
2. N#Cc1ccc2c(c1)OCC[C@H]2Nc1ccc2[nH]nc(-c3ccncc3)c2c1
3. Cc1cc(-c2n[nH]c3ccc(N[C@H]4CCCc5cc(C#N)ccc54)cc23)ccn1
4. N#Cc1ccc2c(c1)CCC[C@H]2Nc1ccc2[nH]nc(-c3ccncc3)c2c1

Result:
15 min
38 min
22 min
26 min

---

Assay: in vitro
Conditions: human, Caco-2
Could you mark each record met if its Papp A→B falls strictly under 9 ×10⁻⁶ cm/s, and not met if it equals or exceeds it?

{"columns": ["Structure", "Cat"],
 "data": [
  ["N#Cc1ccc2c(c1)CCC[C@H]2Nc1ccc2[nH]nc(-c3ccnc(N4CCOCC4)c3)c2c1", "met"],
  ["N#Cc1ccc2c(c1)CCC[C@H]2Nc1ccc2[nH]nc(-c3ccncc3)c2c1", "met"],
  ["Cc1cc(-c2n[nH]c3ccc(N[C@H]4CCCc5cc(C#N)ccc54)cc23)cc(C)n1", "met"],
  ["Cc1cc(-c2n[nH]c3ccc(N[C@@H]4CCCc5cc(C#N)ccc54)cc23)ccn1", "met"],
  ["N#Cc1ccc2c(c1)OCC[C@H]2Nc1ccc2[nH]nc(-c3ccncc3)c2c1", "not met"]
]}

Now look at this entry.
Request: Consider Cc1cc(-c2n[nH]c3ccc(N[C@H]4CCCc5cc(C#N)ccc54)cc23)ccn1 . Does its Papp A→B lie strictly below 9 ×10⁻⁶ cm/s?
Result: not met

---

Assay: AUC infinity in CD-1 mouse plasma at 0.4 mg/kg, iv by LC-MS/MS analysis
Assay type: ADME, organism-based
Design: time infinity, dose 0.4 mg/kg, route iv
Measurement Name: AUC(0-inf) (µM·h)
Answers are plain numbers, in µM·h.

{"columns": ["Structure", "AUC(0-inf), µM·h"],
 "data": [
  ["N#Cc1ccc2c(c1)CCC[C@@H]2Nc1ccc2[nH]nc(-c3ccncc3)c2c1", 0.27],
  ["N#Cc1ccc2c(c1)OCC[C@H]2Nc1ccc2[nH]nc(-c3ccncc3)c2c1", 0.14],
  ["Cc1cc(-c2n[nH]c3ccc(N[C@@H]4CCCc5cc(C#N)ccc54)cc23)ccn1", 0.16]
]}

Request: AUC(0-inf) lookup needed for N#Cc1ccc2c(c1)CCC[C@H]2Nc1ccc2[nH]nc(-c3ccnc(N4CCOCC4)c3)c2c1 , thanks.
Result: 0.4

---

Test: Ratio of drug level in brain to plasma in CD-1 mouse plasma at 0.4 mg/kg, iv by LC-MS/MS analysis
Type: ADME, organism-based
Conditions: brain and plasma, read-out: BPR
Measurement Name: Kp
Answers are plain numbers.

{"columns": ["Structure", "Measured"],
 "data": [
  ["N#Cc1ccc2c(c1)CCC[C@H]2Nc1ccc2[nH]nc(-c3ccnc(N4CCOCC4)c3)c2c1", 0.3],
  ["Cc1cc(-c2n[nH]c3ccc(N[C@@H]4CCCc5cc(C#N)ccc54)cc23)ccn1", 0.5],
  ["N#Cc1ccc2c(c1)OCC[C@H]2Nc1ccc2[nH]nc(-c3ccncc3)c2c1", 1]
]}

Please find the next molecule below.
Request: Kp lookup needed for N#Cc1ccc2c(c1)CCC[C@@H]2Nc1ccc2[nH]nc(-c3ccncc3)c2c1 , thanks.
Result: 1.8

---

Test: Cmax in CD-1 mouse plasma at 2 mg/kg, po by LC-MS/MS analysis
Format: ADME, organism-based
Set-up: dose 2 mg/kg, route po
Measurement Name: Cmax (nM)
Give bare numbers, in nM.

{"columns": ["Structure", "Cmax / nM"],
 "data": [
  ["N#Cc1ccc2c(c1)CCC[C@@H]2Nc1ccc2[nH]nc(-c3ccncc3)c2c1", 470],
  ["Cc1cc(-c2n[nH]c3ccc(N[C@@H]4CCCc5cc(C#N)ccc54)cc23)ccn1", 390],
  ["N#Cc1ccc2c(c1)OCC[C@H]2Nc1ccc2[nH]nc(-c3ccncc3)c2c1", 460]
]}

Request: Cmax lookup needed for N#Cc1ccc2c(c1)CCC[C@H]2Nc1ccc2[nH]nc(-c3ccnc(N4CCOCC4)c3)c2c1 , thanks.
Result: 500

---

Assay: Cmax in CD-1 mouse plasma at 0.4 mg/kg, iv by LC-MS/MS analysis
Type: ADME, organism-based
Set-up: dose 0.4 mg/kg, route iv
Measurement Name: Cmax (nM)
Answers are plain numbers, in nM.

Check out these entries, answers already filled in.
{"columns": ["Structure", "Cmax / nM"],
 "data": [
  ["N#Cc1ccc2c(c1)CCC[C@@H]2Nc1ccc2[nH]nc(-c3ccncc3)c2c1", 340],
  ["N#Cc1ccc2c(c1)CCC[C@H]2Nc1ccc2[nH]nc(-c3ccnc(N4CCOCC4)c3)c2c1", 480]
]}

Fill in Cmax for each of the 2 molecules listed.
1. N#Cc1ccc2c(c1)OCC[C@H]2Nc1ccc2[nH]nc(-c3ccncc3)c2c1
2. Cc1cc(-c2n[nH]c3ccc(N[C@@H]4CCCc5cc(C#N)ccc54)cc23)ccn1

Result:
280
310

---

Hi there, I'd appreciate the recorded Papp B→A for every entry that follows.
Test: in vitro
Conditions: human, Caco-2
Number first, unit second.

Check out these entries, answers already filled in.
{"columns": ["Structure", "Papp B→A"],
 "data": [
  ["Cc1cc(-c2n[nH]c3ccc(N[C@H]4CCCc5cc(C#N)ccc54)cc23)ccn1", "4.1 ×10⁻⁶ cm/s"],
  ["Cc1cc(-c2n[nH]c3ccc(N[C@H]4CCCc5cc(C#N)ccc54)cc23)cc(C)n1", "4 ×10⁻⁶ cm/s"]
]}

Fill in Papp B→A for each of the 5 compounds listed.
1. Cc1cc(-c2n[nH]c3ccc(N[C@@H]4CCCc5cc(C#N)ccc54)cc23)ccn1
2. N#Cc1ccc2c(c1)CCC[C@@H]2Nc1ccc2[nH]nc(-c3ccncc3)c2c1
3. N#Cc1ccc2c(c1)CCC[C@H]2Nc1ccc2[nH]nc(-c3ccnc(N4CCOCC4)c3)c2c1
4. N#Cc1ccc2c(c1)OCC[C@H]2Nc1ccc2[nH]nc(-c3ccncc3)c2c1
5. N#Cc1ccc2c(c1)CCC[C@H]2Nc1ccc2[nH]nc(-c3ccncc3)c2c1

Result:
["6.8 ×10⁻⁶ cm/s", "7.3 ×10⁻⁶ cm/s", "0.8 ×10⁻⁶ cm/s", "25 ×10⁻⁶ cm/s", "11 ×10⁻⁶ cm/s"]

---

Hi there, I'd appreciate the recorded half-life for every entry that follows.
Assay: Half life in CD-1 mouse plasma at 2 mg/kg, po by LC-MS/MS analysis
Type: ADME, organism-based
One number for each entry, in h.

Fill in half-life for each of the 4 compounds listed.
1. N#Cc1ccc2c(c1)CCC[C@H]2Nc1ccc2[nH]nc(-c3ccnc(N4CCOCC4)c3)c2c1
2. N#Cc1ccc2c(c1)OCC[C@H]2Nc1ccc2[nH]nc(-c3ccncc3)c2c1
3. Cc1cc(-c2n[nH]c3ccc(N[C@@H]4CCCc5cc(C#N)ccc54)cc23)ccn1
4. N#Cc1ccc2c(c1)CCC[C@@H]2Nc1ccc2[nH]nc(-c3ccncc3)c2c1

Result:
1. 1.73
2. 1.47
3. 1.78
4. 1.5

---

Test: in vitro
Settings: mouse, liver microsomes
Hi there, I'd appreciate the recorded half-life for every entry that follows.
Give bare numbers, in min.

Check out these entries, answers already filled in.
{"columns": ["Structure", "half-life, min"],
 "data": [
  ["N#Cc1ccc2c(c1)OCC[C@H]2Nc1ccc2[nH]nc(-c3ccncc3)c2c1", 10.3],
  ["N#Cc1ccc2c(c1)CCC[C@@H]2Nc1ccc2[nH]nc(-c3ccncc3)c2c1", 17.7]
]}

Fill in half-life for each of the 5 compounds listed.
1. N#Cc1ccc2c(c1)CCC[C@H]2Nc1ccc2[nH]nc(-c3ccnc(N4CCOCC4)c3)c2c1
2. Cc1cc(-c2n[nH]c3ccc(N[C@H]4CCCc5cc(C#N)ccc54)cc23)ccn1
3. Cc1cc(-c2n[nH]c3ccc(N[C@@H]4CCCc5cc(C#N)ccc54)cc23)ccn1
4. N#Cc1ccc2c(c1)CCC[C@H]2Nc1ccc2[nH]nc(-c3ccncc3)c2c1
5. Cc1cc(-c2n[nH]c3ccc(N[C@H]4CCCc5cc(C#N)ccc54)cc23)cc(C)n1

Result:
[12.7, 15.4, 12.8, 12.4, 11.7]
